Compiled pIC50 measurements on Prostaglandin E2 receptor EP4 subtype (Homo sapiens) taken from the literature.
Sequence (P35408 whole entry): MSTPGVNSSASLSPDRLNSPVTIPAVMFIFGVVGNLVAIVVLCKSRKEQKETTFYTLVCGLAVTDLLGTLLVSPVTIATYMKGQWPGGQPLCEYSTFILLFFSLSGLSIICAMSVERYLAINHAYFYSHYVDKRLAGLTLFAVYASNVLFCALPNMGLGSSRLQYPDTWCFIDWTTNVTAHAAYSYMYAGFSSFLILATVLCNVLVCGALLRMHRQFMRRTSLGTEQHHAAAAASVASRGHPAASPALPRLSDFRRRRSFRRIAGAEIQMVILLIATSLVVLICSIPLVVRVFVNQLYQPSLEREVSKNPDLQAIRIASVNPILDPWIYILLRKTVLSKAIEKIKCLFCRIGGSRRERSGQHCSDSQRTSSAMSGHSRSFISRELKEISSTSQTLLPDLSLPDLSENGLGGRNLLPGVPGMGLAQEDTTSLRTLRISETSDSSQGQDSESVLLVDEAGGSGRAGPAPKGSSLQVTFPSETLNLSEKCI
pIC50: −log10 of the molar value.

{"columns": ["molecule", "study-system", "limit-operator", "pIC50"],
 "data": [
  ["Cc1c(CC(=O)O)c2cccnc2n1Cc1ccc(S(C)(=O)=O)cc1", "Prostaglandin E2 receptor EP4 subtype (Homo sapiens)", "<", 5.00],
  ["CC12CCCC(/C=C/C(=O)NS(=O)(=O)c3ccc(F)c(F)c3)=C1N(Cc1ccc(F)c(F)c1)C(=O)C2 (stereo not given)", "Prostaglandin E2 receptor EP4 subtype (Homo sapiens)", "=", 5.11],
  ["O=C(/C=C/c1cccc2c1N(Cc1ccc3ccccc3c1)C(=O)C2O)NS(=O)(=O)c1ccc(F)c(F)c1 (stereo not given)", "Prostaglandin E2 receptor EP4 subtype (Homo sapiens)", "=", 5.64],
  ["O=C([O-])c1cccc(Cc2cc(Cl)ccc2OCc2ccc(Cl)cc2F)n1.[Na+]", "Prostaglandin E2 receptor EP4 subtype (Homo sapiens)", "<", 5.00],
  ["Cn1cc(/C=C/C(=O)NS(=O)(=O)c2ccc(F)c(F)c2)c2c(Oc3ccc(Cl)cc3Cl)cccc21", "Prostaglandin E2 receptor EP4 subtype (Homo sapiens)", "=", 4.84],
  ["O=C(/C=C/c1cccc2c1N(Cc1ccc3ccccc3c1)C(=O)C2O)NS(=O)(=O)c1cc(F)c(F)cc1F (stereo not given)", "Prostaglandin E2 receptor EP4 subtype (Homo sapiens)", "=", 5.06],
  ["Cn1cc(/C=C/C(=O)NS(=O)(=O)c2cc(F)c(F)cc2F)c2c(Oc3ccc(F)c(Cl)c3)cccc21", "Prostaglandin E2 receptor EP4 subtype (Homo sapiens)", "<", 5.00],
  ["O=C(/C=C/c1cccc2c1N(Cc1ccc3ccccc3c1)C(=O)C2O)NS(=O)(=O)c1ccc(F)cc1 (stereo not given)", "Prostaglandin E2 receptor EP4 subtype (Homo sapiens)", "=", 4.82],
  ["Cn1cc(/C=C/C(=O)NS(=O)(=O)c2cc(F)c(F)cc2F)c2c(Oc3ccc(Cl)cc3Cl)cccc21", "Prostaglandin E2 receptor EP4 subtype (Homo sapiens)", "<", 5.00],
  ["Cc1cn(Cc2ccc(Cl)cc2Cl)c2c(-c3cc(NS(=O)(=O)c4ccc(F)c(F)c4)no3)cc(F)cc12", "Prostaglandin E2 receptor EP4 subtype (Homo sapiens)", "=", 4.73]
]}
